Source listed as patent US7135466B2.

- Tested Target: PDGF-Ra (Homo sapiens, UniProt P16234)
- Construct: host or cells: G-292 human osteosarcoma cells
- Sequence (P16234 24-1089): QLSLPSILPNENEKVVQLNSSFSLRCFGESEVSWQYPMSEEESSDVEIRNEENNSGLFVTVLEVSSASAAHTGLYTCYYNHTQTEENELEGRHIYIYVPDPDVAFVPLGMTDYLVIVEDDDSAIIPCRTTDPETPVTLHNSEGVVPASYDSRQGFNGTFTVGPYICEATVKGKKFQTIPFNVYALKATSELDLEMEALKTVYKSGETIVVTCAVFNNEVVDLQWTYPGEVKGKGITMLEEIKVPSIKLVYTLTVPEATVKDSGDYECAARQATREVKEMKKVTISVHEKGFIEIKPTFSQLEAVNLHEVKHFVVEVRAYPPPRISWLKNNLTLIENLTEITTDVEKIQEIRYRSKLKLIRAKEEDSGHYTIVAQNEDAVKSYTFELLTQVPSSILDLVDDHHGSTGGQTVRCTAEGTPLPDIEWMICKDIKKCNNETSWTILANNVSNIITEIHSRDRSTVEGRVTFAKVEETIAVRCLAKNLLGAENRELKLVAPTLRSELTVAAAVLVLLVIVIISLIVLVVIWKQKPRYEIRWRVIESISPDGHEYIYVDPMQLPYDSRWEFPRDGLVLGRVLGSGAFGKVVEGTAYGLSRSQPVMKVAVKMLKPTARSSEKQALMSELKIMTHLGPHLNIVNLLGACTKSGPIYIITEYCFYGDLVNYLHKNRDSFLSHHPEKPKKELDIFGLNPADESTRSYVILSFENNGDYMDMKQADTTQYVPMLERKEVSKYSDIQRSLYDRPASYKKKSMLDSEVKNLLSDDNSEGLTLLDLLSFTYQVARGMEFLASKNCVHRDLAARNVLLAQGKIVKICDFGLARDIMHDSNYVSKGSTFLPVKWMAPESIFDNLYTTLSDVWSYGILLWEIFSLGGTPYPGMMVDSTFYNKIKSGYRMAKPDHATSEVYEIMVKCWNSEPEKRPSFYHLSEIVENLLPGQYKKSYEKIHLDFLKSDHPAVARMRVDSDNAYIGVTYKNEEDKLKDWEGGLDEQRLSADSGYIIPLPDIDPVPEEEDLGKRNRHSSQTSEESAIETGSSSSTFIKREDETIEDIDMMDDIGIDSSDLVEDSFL
- Assay Comment: Inhibitory activity against PDGF-Ra phosphorylation by PDGF-AA stimulation using G292
- Type: cell-based
- Study Conditions: G292; figure within parentheses in >100( ); at 100 nM; read-out: PDGF (E) inhibition (%) at 100 nM
- Experimental: Measurement of Inhibitory Activity Against PDGF-Ra Phosphorylation by PDGF-AA Stimulation Using G292 […] This solubilized cell solution was transferred to a 96-well plate coated with aniti-phosphotyrosine antibody PY-20, and a reaction was allowed to proceed at 4° C. overnight. […] Color development was carried out using a color development kit for peroxidase (Sumitomo Bakelite Co., Ltd.), and the absorbance was measured at 450 nm.
Result Type: inhibition at 0.1 µM (%)

- Compound: "COc1cc2nccc(Oc3ccc(NC(=O)OC4CCN(C)CC4)cc3)c2cc1OC"
  Tested Target: "PDGF-Ra (Homo sapiens, UniProt P16234)"
  inhibition at 0.1 µM (%): 16
- Compound: "C#CCC(CC)OC(=O)Nc1ccc(Oc2ncnc3cc(OC)c(OC)cc23)cc1[N+](=O)[O-] (stereo not shown)"
  Tested Target: "PDGF-Ra (Homo sapiens, UniProt P16234)"
  inhibition at 0.1 µM (%): 3
- Compound: "COc1cc2nccc(Oc3ccc(NC(=O)NC4CCN(CC5CCCCC5)C4)cc3)c2cc1OC (stereo not shown)"
  Tested Target: "PDGF-Ra (Homo sapiens, UniProt P16234)"
  inhibition at 0.1 µM (%): 32

1 = COc1cc2nccc(Oc3cc(C)c(NC(=S)NCCCN4CCOCC4)cc3C)c2cc1OC
2 = COc1cc2ncnc(Oc3ccc(NC(=S)NN4CCCCC4)cc3)c2cc1OC
Kindly compare 1 with 2 and tell me which has the lower inhibition at 0.1 µM figure. Answer format: the label of the selected item.
2
(2: 21%, 1: 40%)

###

- Tested Target: c-kit (Homo sapiens, UniProt P10721)
- Construct: MO7e (human megakaryocytic leukemia cell line) which had been arrested for 20 hr; endogenous in cells; host or cells: MO7e human megakaryocytic leukemia cell line
- Sequence (P10721 26-976): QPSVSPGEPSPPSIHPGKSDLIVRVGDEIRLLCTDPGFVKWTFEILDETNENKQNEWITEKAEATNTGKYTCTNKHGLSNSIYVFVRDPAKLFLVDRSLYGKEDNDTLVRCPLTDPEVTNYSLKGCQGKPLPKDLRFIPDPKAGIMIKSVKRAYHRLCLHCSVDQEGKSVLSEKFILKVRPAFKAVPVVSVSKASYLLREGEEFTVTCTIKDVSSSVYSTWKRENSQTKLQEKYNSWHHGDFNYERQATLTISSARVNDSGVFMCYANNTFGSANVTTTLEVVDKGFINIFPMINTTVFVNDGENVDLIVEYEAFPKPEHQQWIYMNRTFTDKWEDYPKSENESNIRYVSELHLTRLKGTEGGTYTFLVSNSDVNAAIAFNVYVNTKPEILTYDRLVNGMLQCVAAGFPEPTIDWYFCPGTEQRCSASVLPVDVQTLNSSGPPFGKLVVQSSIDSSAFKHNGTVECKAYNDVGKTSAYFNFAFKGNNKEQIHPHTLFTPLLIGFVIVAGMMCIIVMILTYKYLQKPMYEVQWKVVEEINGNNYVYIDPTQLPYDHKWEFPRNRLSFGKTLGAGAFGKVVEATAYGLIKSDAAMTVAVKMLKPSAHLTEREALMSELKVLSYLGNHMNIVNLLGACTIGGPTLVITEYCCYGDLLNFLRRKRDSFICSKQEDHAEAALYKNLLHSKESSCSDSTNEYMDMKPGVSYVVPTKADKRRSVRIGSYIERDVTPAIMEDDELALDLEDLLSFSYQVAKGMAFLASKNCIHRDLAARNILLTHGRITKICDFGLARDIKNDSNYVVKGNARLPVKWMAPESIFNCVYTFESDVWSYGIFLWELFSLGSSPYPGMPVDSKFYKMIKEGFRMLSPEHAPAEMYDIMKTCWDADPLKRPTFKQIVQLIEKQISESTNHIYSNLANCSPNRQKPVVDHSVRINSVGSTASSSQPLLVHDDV
- Assay Comment: Inhibitory activity against c-kit autophosphorylation (MO7e cells, h-SCF)
- Assay type: cell-based
- Study Conditions: Mo7e, figure within parentheses in −( ) or >1000( ); at 1000 nM
Result Type: inhibition at 1 µM (%)

- Compound: "CCCC(CCN(CC)CC)OC(=O)Nc1cc(C)c(Oc2ccnc3cc(OC)c(OC)cc23)cc1C (stereo not shown)"
  Units Of Measure: "%"
  inhibition at 1 µM: 28
- Compound: "CCCC(CCN1CCN(C)CC1)OC(=O)Nc1cc(C)c(Oc2ccnc3cc(OC)c(OC)cc23)cc1C (stereo not shown)"
  Units Of Measure: "%"
  inhibition at 1 µM: 46
- Compound: "COc1cc2ncnc(Oc3ccc(NC(=S)NCCCN4CCCCC4C)cc3)c2cc1OC (stereo not shown)"
  Units Of Measure: "%"
  inhibition at 1 µM: 35
- Compound: "COc1cc2ncnc(Oc3ccc(OCC(=O)N4CCCCC4)cc3)c2cc1OC"
  Units Of Measure: "%"
  inhibition at 1 µM: 35

###

- Tested Target: c-kit (Homo sapiens, UniProt P10721)
- Construct: MO7e (human megakaryocytic leukemia cell line) which had been arrested for 20 hr; endogenous in cells; host or cells: MO7e human megakaryocytic leukemia cell line
- Assay Comment: Inhibitory activity against c-kit autophosphorylation (MO7e cells, h-SCF)
- Format: cell-based
- Study Conditions: MO7e cells, h-SCF stimulation; read-out: c-kit IC50
pIC50: −log10 of the molar value.
Result Type: pIC50

Below, each entry is followed by its recorded pIC50 result.
- Molecule: "COc1cccc(OCCSc2ccc(Oc3ccnc4cc(OC)c(OC)cc34)cc2)c1 [Example 812]"
  pIC50: 6.49
- Molecule: "COc1cc2nccc(Oc3ccc(NCCOc4c(C)cccc4C)cc3)c2cc1OC [Example 855]"
  pIC50: 6.40
- Molecule: "COc1cc2nccc(Oc3ccc(NC(=S)NC(=O)c4sccc4C)c(F)c3)c2cc1OC [Example 1038]"
  pIC50: 6.22
- Molecule: "CCOc1ccc(C(=O)NC(=S)Nc2ccc(Oc3ccnc4cc(OC)c(OC)cc34)c(F)c2)cc1 [Example 990]"
  pIC50: 6.32
- Molecule: "COc1cc2nccc(Oc3ccc(SCCOc4ccc(Cl)cc4Cl)cc3)c2cc1OC [Example 825]"
  pIC50: 6.48

1 = COc1cc2nccc(Oc3ccc(SCCOc4ccc(C(C)C)cc4)cc3)c2cc1OC [Example 816]
2 = COc1cc2nccc(Oc3ccc(SCCOc4ccc(C)cc4)cc3)c2cc1OC [Example 814]
Kindly compare 1 with 2 and tell me which has the lower pIC50 figure. Answer format: the label of the selected item.
2

###

- Tested Target: PDGF-Ra (Homo sapiens)
- Construct: host or cells: G-292 human osteosarcoma cells
- Assay Comment: Inhibitory activity against PDGF-Ra phosphorylation by PDGF-AA stimulation using G292
- Assay type: cell-based
- Study Conditions: Pharmacological Test Example 1; > means inhibition at indicated concentration not more than 50%, < and << not less than 50%; read-out: PDGF (E) IC50
Result Type: IC50 (nM)

Below, each entry is followed by its recorded IC50 result.
- Compound: "COc1cc2nccc(Oc3cc(C)c(NC(=O)OCc4ccccc4C)cc3C)c2cc1OC [Example 253]"
  Tested Target: "PDGF-Ra (Homo sapiens)"
  IC50 [nM]: 17
- Compound: "COc1cc2nccc(Oc3ccc(NC(=O)OCCCSc4ccc(C(C)(C)C)cc4)cc3)c2cc1OC"
  Tested Target: "PDGF-Ra (Homo sapiens)"
  IC50 [nM]: 36

a = CCOc1ccccc1C(C)OC(=O)Nc1ccc(Oc2ccnc3cc(OC)c(OC)cc23)c(C)c1C (centres unmarked)
b = COc1cc2ncnc(Oc3ccc(NC(=O)OCCCOc4ccc(F)cc4)cc3)c2cc1OC
Kindly compare a with b and tell me which has the lower IC50 figure. Answer format: the label of the selected item.
b

a = COc1cc2ncnc(Oc3ccc(NC(=O)OCCOc4cccc(F)c4)cc3)c2cc1OC
b = CCCC(CC)OC(=O)Nc1ccc(Oc2ccnc3cc(OC)c(OC)cc23)c(C)c1C (centres unmarked)
Kindly compare a with b and tell me which has the lower IC50 figure. Answer format: the label of the selected item.
b
(b: 10 nM, a: 16 nM)

###

- Tested Target: PDGF-Ra (Homo sapiens)
- Construct: host or cells: G-292 human osteosarcoma cells
- Assay Comment: Inhibitory activity against PDGF-Ra phosphorylation by PDGF-AA stimulation using G292
- Assay type: cell-based
- Study Conditions: > means inhibition at indicated concentration not more than 50%, < and << not less than 50%; read-out: PDGF (E) IC50
- Description: Measurement of Inhibitory Activity Against PDGF-Ra Phosphorylation by PDGF-AA Stimulation Using G292 […] This solubilized cell solution was transferred to a 96-well plate coated with aniti-phosphotyrosine antibody PY-20, and a reaction was allowed to proceed at 4° C. overnight. […] Color development was carried out using a color development kit for peroxidase (Sumitomo Bakelite Co., Ltd.), and the absorbance was measured at 450 nm.
Result Type: IC50 (µM)

Below, each entry is followed by its recorded IC50 result.
- Line Notation: "COc1cc(Oc2ccnc3cc(OC)c(OC)cc23)ccc1NC(=O)NN1CCCCC1"
  Tested Target: "PDGF-Ra (Homo sapiens)"
  Numeric Result: 0.019
- Line Notation: "COc1cc2nccc(Oc3ccc(NCCCOc4ccccc4)c(C)c3C)c2cc1OC"
  Tested Target: "PDGF-Ra (Homo sapiens)"
  Numeric Result: 0.05

A = CCCC(CCC)OC(=O)N(C)c1ccc(Oc2ncnc3cc(OC)c(OC)cc23)cc1Cl
B = CCCc1ccc(C(=O)NC(=S)Nc2ccc(Oc3ccnc4cc(OC)c(OC)cc34)cc2F)cc1
IC50 comparison. Which is larger, A or B ? Answer format: the label of the selected item.
B

###

- Tested Target: c-kit (Homo sapiens)
- Construct: MO7e (human megakaryocytic leukemia cell line) which had been arrested for 20 hr; endogenous in cells; host or cells: MO7e human megakaryocytic leukemia cell line
- Assay Comment: Inhibitory activity against c-kit autophosphorylation (MO7e cells, h-SCF)
- Type: cell-based
- Study Conditions: MO7e cells, h-SCF stimulation; read-out: c-kit IC50
pIC50: −log10 of the molar value.
Result Type: pIC50

- Compound: "COc1cc2nccc(Oc3ccc(NC(=S)NC(=O)CCc4ccccc4)cc3F)c2cc1OC"
  pIC50: 6.26
- Compound: "COc1cc2ncnc(Oc3ccc(SCCOc4cccc(C)c4)cc3)c2cc1OC"
  pIC50: 6.56

I = COc1cc2nccc(Oc3ccc(NC(=S)NC(=O)N(C)c4ccccc4)cc3Cl)c2cc1OC
II = COc1cc2nccc(Oc3ccc(NC(=S)NC(=O)c4cccc(F)c4)cc3)c2cc1OC
III = COc1cc2nccc(Oc3ccc(NC(=S)NC(=O)C4CC4)cc3F)c2cc1OC
IV = COc1cc2ncnc(Oc3ccc(NC(=S)NC(=O)c4ccccc4Cl)cc3)c2cc1OC
Order the records, beginning with the lowest pIC50 and ending with the highest. Rank them, then answer with their labels in that order.
III, II, IV, I
